Property: Inhibition; scope: individual compounds
# Test system: HepG2
# method_description: GSK_TCMDC: Percent inhibition of human HepG2 cell line. Test compounds present at 10uM.
# Assay type: functional
Write the value in % as a bare number.

Below: 4 compounds and their reported Inhibition.
[
  {
    "molecular_string": "COc1ccc2nccc([C@@H](O)CN3CCC(NC(=O)c4nc(Cl)c(Cl)c(N)c4Cl)CC3)c2c1.CS(=O)(=O)O",
    "reading_unit": "%",
    "Inhibition": 16
  },
  {
    "molecular_string": "CCc1c(CCNCCCCCNCCc2ccc(OC)c(OC)c2CC)ccc(OC)c1OC.Cl",
    "reading_unit": "%",
    "Inhibition": 59
  },
  {
    "molecular_string": "N=C(N)NC(=O)Nc1cc(Cl)c(Cl)c(C(F)(F)F)c1",
    "reading_unit": "%",
    "Inhibition": 6
  },
  {
    "molecular_string": "COc1ccc(N2CCN(CCCCNC(=O)c3ccc(NC(=O)c4ccc(OC(F)(F)F)cc4)cc3)CC2)c(OC)c1",
    "reading_unit": "%",
    "Inhibition": 36
  }
]

// next entry
# get_value(readout='Inhibition', item= `Cl.N#Cc1ccc(-c2ccc3nc(N4CCCN(C5CCC5)CC4)ccc3c2)cc1` )
36
